Biological target: Adenosine receptor A2b (Homo sapiens)
Test: Displacement of [3H]DPCPX from recombinant human adenosine A2B receptor expressed in HEK293 cells at 0.1 uM
Assay type: cell-based
Would you please tag the item Satisfied when its inhibition is 80% or above, and Not satisfied when it is below?

Here's what some known entries look like.
CCCn1c(=O)c2[nH]c(-c3ccc(OCC(=O)Nc4ccccc4)cc3OC)cc2n(CCC)c1=O; Not satisfied
Cn1c(=O)c2[nH]c(-c3ccc(OCC(=O)N[C@H]4C(O)O[C@H](CO)[C@@H](O)[C@@H]4O)cc3)cc2n(C)c1=O (some centres not stated); Not satisfied
CCCn1c(=O)c2[nH]c(-c3ccc(OCC(=O)Nc4ccc(C)cn4)cc3)cc2n(CCC)c1=O; Satisfied
O=C(COc1ccc(-c2cc3c([nH]2)c(=O)n(CC2CC2)c(=O)n3CC2CC2)cc1)Nc1ccc(F)cc1; Satisfied
CCCn1c(=O)c2[nH]c(-c3ccc(OC(C)(C)C(=O)Nc4ccc(F)cc4)cc3)cc2n(CCC)c1=O; Satisfied

// inclusive: inhibition at least 80%? input: O=C(O)COc1ccc(-c2cc3c([nH]2)c(=O)n(CC(F)(F)F)c(=O)n3CC(F)(F)F)cc1
Not satisfied

// inclusive: inhibition at least 80%? input: Cn1c(=O)c2[nH]c(-c3ccc(OCC(=O)Nc4ccccc4)cc3)cc2n(C)c1=O
Satisfied

// inclusive: inhibition at least 80%? input: CCOC(=O)COc1ccc(-c2cc3c([nH]2)c(=O)n(CC)c(=O)n3CCCOC)cc1
Not satisfied

// inclusive: inhibition at least 80%? input: CCCn1c(=O)c2[nH]c(-c3ccc(OCC(=O)Nc4ccccc4F)cc3)c(Cl)c2n(CCC)c1=O
Not satisfied

// inclusive: inhibition at least 80%? input: O=C(COc1ccc(-c2cc3c([nH]2)c(=O)n(CC2CC2)c(=O)n3CC2CC2)cc1)Nc1ccccc1
Satisfied

// inclusive: inhibition at least 80%? input: CCn1c(=O)c2[nH]c(-c3ccc(OCC(=O)O)cc3)cc2n(CCCOC)c1=O
Not satisfied

// inclusive: inhibition at least 80%? input: O=C(COc1ccc(-c2cc3c([nH]2)c(=O)n(CC2CC2)c(=O)n3CC2CC2)cc1)Nc1ccc(Br)cc1
Satisfied

// inclusive: inhibition at least 80%? input: COc1cccc(CNC(=O)COc2ccc(-c3cc4c([nH]3)c(=O)n(C)c(=O)n4C)cc2)c1
Not satisfied
